In this section, each of the binders is paired with its reported Mean % WT Binding.
- study system: human CD33 W22R (human, UniProt P20138 18-364)
- Sequence (P20138 18-364 W22R limits assumed): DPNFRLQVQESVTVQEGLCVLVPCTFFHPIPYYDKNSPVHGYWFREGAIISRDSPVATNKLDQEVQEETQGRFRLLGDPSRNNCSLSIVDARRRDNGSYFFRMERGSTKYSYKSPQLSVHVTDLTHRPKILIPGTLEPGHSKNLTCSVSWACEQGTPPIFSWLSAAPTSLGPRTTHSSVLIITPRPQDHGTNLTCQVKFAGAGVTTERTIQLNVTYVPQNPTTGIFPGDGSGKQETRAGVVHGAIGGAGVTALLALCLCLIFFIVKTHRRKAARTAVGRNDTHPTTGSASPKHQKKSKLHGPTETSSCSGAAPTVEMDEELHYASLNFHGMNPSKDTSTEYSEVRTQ
- assay method text: flow cytometry, mutant on cells, IgG
Write the value in % WT binding as a bare number.

Please review the entries below; each comes with its answer.
binder: Refmab #2 (antibody, human IgG1, V domains shown, Tested in IgG format; human IgG1 Fc silent (PG-LALA)) VH: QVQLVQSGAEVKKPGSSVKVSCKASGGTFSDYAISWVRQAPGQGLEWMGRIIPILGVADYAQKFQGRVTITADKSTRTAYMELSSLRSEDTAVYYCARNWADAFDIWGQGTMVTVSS VL: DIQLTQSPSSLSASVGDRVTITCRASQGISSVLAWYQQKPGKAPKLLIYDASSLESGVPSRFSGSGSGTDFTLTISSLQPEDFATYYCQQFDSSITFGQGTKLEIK
Mean % WT Binding (% WT binding): 115

binder: Refmab #3 (antibody, human IgG1, V domains shown, Tested in IgG format; human IgG1 Fc silent (PG-LALA)) VH: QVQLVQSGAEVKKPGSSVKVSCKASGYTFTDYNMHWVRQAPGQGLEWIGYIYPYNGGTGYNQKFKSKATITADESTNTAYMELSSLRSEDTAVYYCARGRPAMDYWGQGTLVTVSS VL: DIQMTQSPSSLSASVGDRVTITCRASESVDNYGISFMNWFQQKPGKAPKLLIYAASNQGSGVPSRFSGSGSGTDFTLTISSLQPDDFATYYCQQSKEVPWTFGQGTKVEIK
Mean % WT Binding (% WT binding): 0.9

binder: Refmab #4 (antibody, human IgG1, V domains shown, Tested in IgG format; human IgG1 Fc silent (PG-LALA)) VH: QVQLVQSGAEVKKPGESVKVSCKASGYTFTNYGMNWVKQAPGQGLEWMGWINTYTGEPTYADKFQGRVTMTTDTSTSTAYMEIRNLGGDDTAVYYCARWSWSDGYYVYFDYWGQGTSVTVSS VL: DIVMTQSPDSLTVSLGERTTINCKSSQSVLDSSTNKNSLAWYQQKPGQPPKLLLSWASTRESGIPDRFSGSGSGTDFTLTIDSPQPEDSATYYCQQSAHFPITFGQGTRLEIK
Mean % WT Binding (% WT binding): 114

Please look up its Mean % WT Binding: Refmab #1 (antibody, human IgG1, V domains shown, Tested in IgG format; human IgG1 (Absolute Antibody hP67.6, Cat. No. Ab00283-10.0); also called hP67.6) VH: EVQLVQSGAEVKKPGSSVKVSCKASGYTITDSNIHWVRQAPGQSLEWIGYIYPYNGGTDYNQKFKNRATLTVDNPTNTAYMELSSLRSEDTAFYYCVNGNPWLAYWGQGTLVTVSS VL: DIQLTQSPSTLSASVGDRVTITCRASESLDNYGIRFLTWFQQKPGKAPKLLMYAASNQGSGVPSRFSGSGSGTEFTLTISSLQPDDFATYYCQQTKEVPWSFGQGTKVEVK
7.4
